System: MCF7
procedureSummary: Cytotoxicity against human MCF7 cells after 48 hrs by sulforhodamine B assay
Assay type: functional
assaySetup: MCF7, 48 h

structure | readoutUnit | GI50
CC(C)C[C@H]1OC(=O)[C@H](Cc2ccc(O)cc2)NC(=O)[C@H](C)OC(=O)[C@@H](C(C)C)NC(=O)[C@@H](CC(C)C)OC(=O)[C@H](C(C)C)NC(=O)[C@H](C)OC(=O)[C@@H](C(C)C)NC(=O)[C@@H](CC(C)C)OC(=O)[C@H](C(C)C)NC(=O)[C@H](C)OC(=O)[C@@H](C(C)C)NC1=O | nM | 1.3
CC(C)[C@@H]1NC(=O)[C@H](C)OC(=O)[C@@H](C(C)C)NC(=O)[C@@H](CC2CCCCC2)OC(=O)[C@H]([C@@H](C)OC(C)(C)C)NC(=O)[C@H](C)OC(=O)[C@@H](C(C)C)NC(=O)[C@@H](CC2CCCCC2)OC(=O)[C@H](C(C)C)NC(=O)[C@H](C)OC(=O)[C@@H](C(C)C)NC(=O)[C@@H](CC2CCCCC2)OC1=O | nM | 56.3

* * *

System: MCF7
procedureSummary: Cytotoxicity against human MCF7 cells after 48 hrs by sulforhodamine B assay
Assay type: functional
assaySetup: MCF7, 48 h

structure | readoutUnit | GI50
CC[C@H](C)[C@H]1OC(=O)[C@H](C(C)C)NC(=O)[C@H](C)OC(=O)[C@@H](C(C)C)NC(=O)[C@@H]([C@@H](C)CC)OC(=O)[C@H](C(C)C)NC(=O)[C@H](C)OC(=O)[C@@H](C(C)C)NC(=O)[C@@H](CC(C)C)OC(=O)[C@H](C(C)C)NC(=O)[C@H](C)OC(=O)[C@@H](C(C)C)NC1=O | nM | 0.27
CC[C@H](C)[C@H]1OC(=O)[C@H](C(C)C)NC(=O)[C@H](C)OC(=O)[C@@H](C(C)C)NC(=O)[C@@H]([C@@H](C)CC)OC(=O)[C@H](C(C)C)NC(=O)[C@H](C)OC(=O)[C@@H](C(C)C)NC(=O)[C@@H]([C@@H](C)CC)OC(=O)[C@H](C(C)C)NC(=O)[C@H](C)OC(=O)[C@@H](C(C)C)NC1=O | nM | 0.53
CC(C)C[C@H]1OC(=O)[C@H](C(C)C)NC(=O)[C@H](C)OC(=O)[C@@H](C(C)C)NC(=O)[C@@H](CC2CCCCC2)OC(=O)[C@H]([C@@H](C)O)NC(=O)[C@H](C)OC(=O)[C@@H](C(C)C)NC(=O)[C@@H](CC(C)C)OC(=O)[C@H](C(C)C)NC(=O)[C@H](C)OC(=O)[C@@H](C(C)C)NC1=O | nM | 1.5
CC(C)C[C@H]1OC(=O)[C@H](Cc2ccc(OC(C)(C)C)cc2)NC(=O)[C@H](C)OC(=O)[C@@H](C(C)C)NC(=O)[C@@H](CC(C)C)OC(=O)[C@H](C(C)C)NC(=O)[C@H](C)OC(=O)[C@@H](C(C)C)NC(=O)[C@@H](CC(C)C)OC(=O)[C@H](C(C)C)NC(=O)[C@H](C)OC(=O)[C@@H](C(C)C)NC1=O | nM | 3.3

* * *

Test system: DU-145
procedureSummary: Cytotoxicity against human DU145 cells after 48 hrs by sulforhodamine B assay
Assay type: functional
assaySetup: DU-145, 48 h
reportedEndpoint: log10 of GI50 (log10 of the value in nM)

structure | log10 of GI50
CC(C)C[C@H]1OC(=O)[C@H](C(C)C)NC(=O)[C@H](C)OC(=O)[C@@H](C(C)C)NC(=O)[C@@H](CC2CCCCC2)OC(=O)[C@H]([C@@H](C)OC(=O)CCCN(C)C(=O)OCc2ccc(O[C@@H]3O[C@H](C(=O)O)[C@@H](O)[C@H](O)[C@H]3O)c([N+](=O)[O-])c2)NC(=O)[C@H](C)OC(=O)[C@@H](C(C)C)NC(=O)[C@@H](CC(C)C)OC(=O)[C@H](C(C)C)NC(=O)[C@H](C)OC(=O)[C@@H](C(C)C)NC1=O | 1.89
CC(C)C[C@H]1OC(=O)[C@H](C(C)C)NC(=O)[C@H](C)OC(=O)[C@@H](C(C)C)NC(=O)[C@@H](CC2CCCCC2)OC(=O)[C@H]([C@@H](C)O)NC(=O)[C@H](C)OC(=O)[C@@H](C(C)C)NC(=O)[C@@H](CC(C)C)OC(=O)[C@H](C(C)C)NC(=O)[C@H](C)OC(=O)[C@@H](C(C)C)NC1=O | 0.40
CC[C@H](C)[C@H]1OC(=O)[C@H](C(C)C)NC(=O)[C@H](C)OC(=O)[C@@H](C(C)C)NC(=O)[C@@H]([C@@H](C)CC)OC(=O)[C@H](C(C)C)NC(=O)[C@H](C)OC(=O)[C@@H](C(C)C)NC(=O)[C@@H](CC(C)C)OC(=O)[C@H](C(C)C)NC(=O)[C@H](C)OC(=O)[C@@H](C(C)C)NC1=O | -0.12
CC(C)C[C@H]1OC(=O)[C@H](Cc2ccc(OC(C)(C)C)cc2)NC(=O)[C@H](C)OC(=O)[C@@H](C(C)C)NC(=O)[C@@H](CC(C)C)OC(=O)[C@H](C(C)C)NC(=O)[C@H](C)OC(=O)[C@@H](C(C)C)NC(=O)[C@@H](CC(C)C)OC(=O)[C@H](C(C)C)NC(=O)[C@H](C)OC(=O)[C@@H](C(C)C)NC1=O | 0.93
CC(C)C[C@H]1OC(=O)[C@H](Cc2ccc(O)cc2)NC(=O)[C@H](C)OC(=O)[C@@H](C(C)C)NC(=O)[C@@H](CC(C)C)OC(=O)[C@H](C(C)C)NC(=O)[C@H](C)OC(=O)[C@@H](C(C)C)NC(=O)[C@@H](CC(C)C)OC(=O)[C@H](C(C)C)NC(=O)[C@H](C)OC(=O)[C@@H](C(C)C)NC1=O | 0.62
CC(C)[C@@H]1NC(=O)[C@H](C)OC(=O)[C@@H](C(C)C)NC(=O)[C@@H](CC2CCCCC2)OC(=O)[C@H]([C@@H](C)O)NC(=O)[C@H](C)OC(=O)[C@@H](C(C)C)NC(=O)[C@@H](CC2CCCCC2)OC(=O)[C@H](C(C)C)NC(=O)[C@H](C)OC(=O)[C@@H](C(C)C)NC(=O)[C@@H](CC2CCCCC2)OC1=O | 0.59

* * *

Each entry below carries its recorded GI50.
Tested on: MCF7
procedureSummary: Cytotoxicity against human MCF7 cells after 48 hrs by sulforhodamine B assay
Type: functional
assaySetup: MCF7, 48 h

structure | targetEntity | GI50
CC(C)[C@@H]1NC(=O)[C@H](C)OC(=O)[C@@H](C(C)C)NC(=O)[C@@H](CC2CCCCC2)OC(=O)[C@H](C(C)C)NC(=O)[C@H](C)OC(=O)[C@@H](C(C)C)NC(=O)[C@@H](CC2CCCCC2)OC(=O)[C@H](Cc2ccc(O)cc2)NC(=O)[C@H](C)OC(=O)[C@@H](C(C)C)NC(=O)[C@@H](CC2CCCCC2)OC1=O | MCF7 | 0.0897 µM
CC(C)C[C@H]1OC(=O)[C@H](C(C)C)NC(=O)[C@H](C)OC(=O)[C@@H](C(C)C)NC(=O)[C@@H](CC2CCCCC2)OC(=O)[C@H]([C@@H](C)OC(=O)CCCN(C)C(=O)OCc2ccc(O[C@@H]3O[C@H](C(=O)O)[C@@H](O)[C@H](O)[C@H]3O)c([N+](=O)[O-])c2)NC(=O)[C@H](C)OC(=O)[C@@H](C(C)C)NC(=O)[C@@H](CC(C)C)OC(=O)[C@H](C(C)C)NC(=O)[C@H](C)OC(=O)[C@@H](C(C)C)NC1=O | MCF7 | 0.0186 µM
CC(C)C[C@H]1OC(=O)[C@H](C(C)C)NC(=O)[C@H](C)OC(=O)[C@@H](C(C)C)NC(=O)[C@@H](CC2CCCCC2)OC(=O)[C@H]([C@@H](C)OC(C)(C)C)NC(=O)[C@H](C)OC(=O)[C@@H](C(C)C)NC(=O)[C@@H](CC(C)C)OC(=O)[C@H](C(C)C)NC(=O)[C@H](C)OC(=O)[C@@H](C(C)C)NC1=O | MCF7 | 0.00079 µM

* * *

Test system: NCI-H460
procedureSummary: Cytotoxicity against human NCI-H460 cells after 48 hrs by sulforhodamine B assay
Format: functional
assaySetup: NCI-H460, 48 h
reportedEndpoint: GI50 (nM)

structure | reportedEndpoint | readoutUnit | assayValue
CC(C)C[C@H]1OC(=O)[C@H](C(C)C)NC(=O)[C@H](C)OC(=O)[C@@H](C(C)C)NC(=O)[C@@H](CC(C)C)OC(=O)[C@H](C(C)C)NC(=O)[C@H](C)OC(=O)[C@@H](C(C)C)NC(=O)[C@@H](CC(C)C)OC(=O)[C@H](C(C)C)NC(=O)[C@H](C)OC(=O)[C@@H](C(C)C)NC1=O | GI50 | nM | 0.61
CC[C@H](C)[C@H]1OC(=O)[C@H](C(C)C)NC(=O)[C@H](C)OC(=O)[C@@H](C(C)C)NC(=O)[C@@H]([C@@H](C)CC)OC(=O)[C@H](C(C)C)NC(=O)[C@H](C)OC(=O)[C@@H](C(C)C)NC(=O)[C@@H]([C@@H](C)CC)OC(=O)[C@H](C(C)C)NC(=O)[C@H](C)OC(=O)[C@@H](C(C)C)NC1=O | GI50 | nM | 1.2
